Entry source: patent US12281155

# MEASURED TARGET: T1, recombinant SARS-CoV-2 Spike RBD domain, JN-1 variant (SARS-CoV-2)
# T1 construct: also called RBD JN-1 variant
# TEST: ELISA on coated RBD
MEASURED ENDPOINT: Binding AUC
The response must contain the number and no unit.

[[record]]
binder = "SPK002M C1 antibody (antibody, human IgG1, kappa, V domains shown) VH: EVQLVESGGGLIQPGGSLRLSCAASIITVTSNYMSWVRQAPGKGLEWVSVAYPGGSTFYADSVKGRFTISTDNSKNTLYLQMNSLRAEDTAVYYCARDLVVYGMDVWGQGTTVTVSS VL: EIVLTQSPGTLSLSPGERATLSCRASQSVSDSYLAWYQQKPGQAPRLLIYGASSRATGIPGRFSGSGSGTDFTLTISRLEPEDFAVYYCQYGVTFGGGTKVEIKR"
readout_number = 39

[[record]]
binder = "SPK002M B1 antibody (antibody, human IgG1, kappa, V domains shown) VH: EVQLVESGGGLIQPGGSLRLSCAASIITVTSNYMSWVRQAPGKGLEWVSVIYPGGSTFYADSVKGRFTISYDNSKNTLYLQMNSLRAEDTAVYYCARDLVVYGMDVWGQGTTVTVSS VL: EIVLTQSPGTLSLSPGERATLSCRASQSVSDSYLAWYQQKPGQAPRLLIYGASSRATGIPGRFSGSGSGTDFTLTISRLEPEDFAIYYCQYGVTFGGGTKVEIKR"
readout_number = 38


Below: the item to evaluate.
Identify Binding AUC associated with the binder SPK002M C2 antibody (antibody, human IgG1, kappa, V domains shown) VH: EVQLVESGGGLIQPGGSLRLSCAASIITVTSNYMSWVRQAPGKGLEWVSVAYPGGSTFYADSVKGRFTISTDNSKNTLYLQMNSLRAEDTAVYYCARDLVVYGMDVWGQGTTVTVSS VL: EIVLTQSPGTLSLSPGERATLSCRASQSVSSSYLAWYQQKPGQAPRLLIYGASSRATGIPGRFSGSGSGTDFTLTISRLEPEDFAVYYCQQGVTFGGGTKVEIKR 33
